The measured values listed here are drawn from ChEMBL document CHEMBL5303304.

Test system: HEK-293T
Assay: Incucyte cell viability with HEK293T; further: unitless GR value; below 1 slowed growth and below 0 cell loss
Assay type: toxicity, cell-based
Conditions: human, 18 h, 10 µM, compound concentration 10 uM, replicate number 1
recorded_endpoint: Growth Rate
Give bare numbers.

What value of Growth Rate has been recorded for this entry: O=C(Nc1cccc(Nc2nccc(Nc3cccc(C(F)(F)F)c3)n2)c1)C1CC1 [ANILINOPYRIMIDINE1]
-0.46

Batch lookup, Growth Rate per entry.
1. CNCc1ccc(-c2cc(-c3nc(-c4ccc(S(=O)(=O)C(C)C)cc4)cnc3N)on2)cc1 [BERZOSERTIB]
2. Nc1ncc2c(n1)-c1c([nH]c3ccc(C4=CCOCC4)cc13)CCC2
3. Cc1cc(-c2nncc3c(C(C)(C)C)c(OCc4ncnn4C)nn23)no1
4. CCOC(=O)c1cnn(-c2ccc(NC(=O)C(Cl)=C(Cl)Cl)cc2)c1C(F)(F)F
5. CC(C)Oc1ccc(Cc2ccc(NC3=NCCN3)cc2)cc1
6. O=C(N[C@H](Cc1ccccc1)C(=O)O)c1cccc(OCc2cccnc2)c1.O=CO

1: -0.3; 2: 0.18; 3: 0.1; 4: -0.51; 5: 0.26; 6: 1

Batch lookup, Growth Rate per entry.
1. CNc1nc(NCc2ncccn2)c2c(-c3ccc4ncccc4c3)c[nH]c2n1
2. O=C(Nc1cccc(C(F)(F)F)c1)c1cccc(-n2cc(-c3ccco3)nn2)c1

1. 0.83
2. 0.67

====

Test system: HEK-293T
Test: Incucyte cell viability with HEK293T; further: unitless GR value; below 1 slowed growth and below 0 cell loss
Type: toxicity, cell-based
Details: human, 6 h, 10 µM, compound concentration 10 uM, replicate number 1
recorded_endpoint: Growth Rate
One number for each entry.

Request: Growth Rate, test system HEK-293T, entry C[C@@H](NC(=O)Cc1ccc(C2CC2)cc1)c1ccc(OCC(F)(F)F)cn1
0.39

Batch lookup, Growth Rate per entry.
1. NC(=O)c1ccc2[nH]c(-c3ccc(Oc4ccc(Cl)cc4)cc3)nc2c1
2. COC1(C#Cc2ccc(Cl)c(-c3ncc4c(n3)-c3sc(NC(C)=O)nc3CC4)c2)CCN(C)CC1
3. CC(C)c1cnc(NC(=O)Cc2ccccc2)s1
4. CS(=O)(=O)c1cc(C2(NC(=O)c3cncc4c3cnn4-c3ccc(F)cc3)CC2)ccn1
5. CC(=O)NCC(=O)N1[C@@H]2CC[C@H]1c1ccc(Nc3ncc(C(F)(F)F)c(NC4CCC4)n3)cc12
6. Cc1cc(NC(=O)c2cccc(NC(=O)/C=C/CN(C)C)c2)ccc1Nc1nccc(-c2cccnc2)n1

1. 0.6
2. -0.41
3. 0.76
4. 0.52
5. -0.95
6. -0.35

Batch lookup, Growth Rate per entry.
1. COCCCS(=O)(=O)c1cc(C)c(-c2ccc(F)c3c2CC[C@H]3Oc2ccc3c(c2)OC[C@H]3CC(=O)O)c(C)c1
2. CCC(C(=O)Nc1ccc(-c2cc3ccccc3s2)c(C(N)=O)c1)c1nccs1 (stereo unspecified)
3. Cc1cc(OC2CCS(=O)(=O)CC2)cc(C)c1-c1cccc(COc2ccc(CCC(=O)O)c(F)c2)c1
4. Cl.Cl.O=[N+]([O-])c1ccc(CN2CCOCCOCCN(Cc3ccc([N+](=O)[O-])cc3)CCOCC2)cc1
5. COc1cc(NC(=O)c2ccc(-c3ccc(Cl)cc3)o2)cc(OC)c1
6. CC(C)(C)c1cc(NC(=O)c2csc(Nc3ccccn3)n2)no1
7. CCCCCN1C(=O)C2(COc3cc4c(cc32)OCO4)c2ccccc21 (stereo unspecified)
8. C=CC(=O)Nc1cccc(C(=O)Nc2ccc(NC(=O)c3cccc(-c4ccn[nH]4)n3)cc2)c1

[0.78, 0.31, 0.99, -0.5, 0.31, -0.14, 0.51, 0.54]

Batch lookup, Growth Rate per entry.
1. O=C1Nc2nc(-c3c(O)cccc3OCC3CC3)cc([C@@H]3CCCNC3)c2CO1
2. CCc1nc(C2CCC2)n2nc(-c3ccccc3)[nH]c(=O)c12
3. CCN1CCN(Cc2ccc(NC(=O)c3ccc(C)c(Oc4ccnc5[nH]ccc45)c3)cc2C(F)(F)F)CC1.Cl.Cl.Cl.O
4. C#Cc1cnc2[nH]cc(-c3cccc4c3CCN4C(=O)[C@@H]3CCCN3C#N)c2c1
5. CC[C@H](C(=O)Nc1ccccc1N1CCCC1)c1ccccc1

1: 0.72; 2: -0.09; 3: -0.97; 4: -0.95; 5: 0.92

Batch lookup, Growth Rate per entry.
1. CC(C)(C)OC(=O)CN1C(=O)c2c(OCC(=O)O)cccc2Oc2ccc(C(F)(F)F)cc21
2. CNC(=O)c1c[nH]c2ccc(Nc3nccc(-c4ccccn4)n3)cc12
3. Cc1cc(-c2nncc3c(C(C)(C)C)c(OCc4ncnn4C)nn23)no1
4. CC(C)(C)c1cc(C(C)(C)C)c(NC(=O)c2c[nH]c3ccccc3c2=O)cc1O
5. C[C@@H]1C[C@H](N)C[C@H](c2ccncc2NC(=O)c2ccc(F)c(-c3c(F)cccc3F)n2)C1

0.69
0.28
0.14
0.19
-0.02

====

Please respond with reported Growth Rate for every item in the list.
Tested on: HEK-293T
Assay: Incucyte cell viability with HEK293T; further: unitless GR value; below 1 slowed growth and below 0 cell loss
Format: toxicity, cell-based
Details: human, 18 h, 10 µM, compound concentration 10 uM, replicate number 1
Give bare numbers.

What value of Growth Rate has been recorded for this entry: Cn1cc(-c2ccc(-c3cncc(Cl)c3N3CCC4(CCNC4=O)CC3)cc2)cn1
0.34

Here is the next molecule: CC(Oc1cc(-c2cnn(C3CCNCC3)c2)cnc1N)c1c(Cl)ccc(F)c1Cl (centres undefined)
-0.49

Here is the next molecule: CC(C)[C@H](CO)Nc1nc(Nc2ccc(C(=O)O)c(Cl)c2)c2ncn(C(C)C)c2n1
0.9

Here is the next molecule: CN1CCC[C@H]1c1cccnc1
0.99

Here is the next molecule: Cc1sc(C(=O)c2cncnc2N[C@@H]2C[C@H](COS(N)(=O)=O)[C@@H](O)C2)cc1[C@@H]1NCCc2ccc(Cl)cc21
0.9

Batch lookup, Growth Rate per entry.
1. COc1c(OCCCN2CCOCC2)ccc2c1N=C(NC(=O)c1cnc(N)nc1)N1CCN=C21
2. CN1CCC(F)(Cn2cnc(-c3ccc(F)cn3)c2-c2ccnc3[nH]ccc23)CC1
3. CC(C)(C)c1cc(C(C)(C)C)c(NC(=O)c2c[nH]c3ccccc3c2=O)cc1O
4. CCN1C(=O)N(c2c(F)c(OC)cc(OC)c2F)Cc2cnc3[nH]c(CN4CCOCC4)cc3c21

0.12
0.93
0.65
0.68

====

System: HEK-293T
Assay: Incucyte cell viability with HEK293T; further: unitless GR value; below 1 slowed growth and below 0 cell loss
Assay type: toxicity, cell-based
Conditions: human, 12 h, 10 µM, compound concentration 10 uM, replicate number 1
Hi, to clarify the labels: met covers Growth Rate from 0.3 upward, not met covers anything below 0.3.

I'd appreciate it if you could say whether O=C(O)C[C@H]1CC[C@H](c2ccc(NC(=O)c3nnc(Nc4ccc(F)c(F)c4)o3)cc2)CC1 has Growth Rate at least equal to 0.3.
met

Here is the next molecule: Nc1ncnc2c1c(I)cn2[C@@H]1O[C@H](CO)[C@@H](O)[C@H]1O [IODOTUBERCIDIN]
not met

Here is the next molecule: CN(C)CCCN1c2ccccc2Sc2ccc(Cl)cc21.Cl [CHLORPROMAZINE HYDROCHLORIDE]
met

More entries:
I'd appreciate it if you could say whether O=C(CCCCCCc1ccccc1)c1ncc(-c2ccccn2)o1 has Growth Rate at least equal to 0.3.
met

Here is the next molecule: CS(=O)(=O)c1cc(C2(NC(=O)c3cncc4c3cnn4-c3ccc(F)cc3)CC2)ccn1 [BI 639667]
met

Here is the next molecule: CCCCC/C=C/C=C1/C(=O)C=C[C@@H]1C/C=C\CCCC(=O)O
met

Here is the next molecule: COc1cc(N)c(Cl)cc1C(=O)NC1CN2CCC1CC2.Cl (centres undefined)
met

Here is the next molecule: Cc1cc(-c2nc(-c3ccc(OC(F)(F)F)cc3)no2)nn1Cc1ccnc(N2CCN(C3CC3)CC2)c1
met

Here is the next molecule: CC1(C)C(=O)N([C@H]2CCc3c(O)cccc32)c2nc(Nc3cccc(CN4CCCC4)c3)ncc21
not met

====

Please respond with reported Growth Rate for every item in the list.
System: HEK-293T
Test: Incucyte cell viability with HEK293T; further: unitless GR value; below 1 slowed growth and below 0 cell loss
Type: toxicity, cell-based
Details: human, 6 h, 10 µM, compound concentration 10 uM, replicate number 2
Numbers only.

See these solved cases before continuing.
What value of Growth Rate has been recorded for this entry: CCCCCCCN(CCc1ccc(SC(C)(C)C(=O)O)cc1)C(=O)Nc1ccc(F)cc1F [GSK-9578]
0.66

Here is the next compound: CC[C@H](CO)Nc1nc(Nc2cccc(-c3ccccn3)c2)c2ncn(C(C)C)c2n1.Cl.O
-0.77

Batch lookup, Growth Rate per entry.
1. O=C(O)[C@]1(Cc2cccc(Nc3nccs3)n2)CC[C@@H](Oc2cccc(Cl)c2F)CC1 [MK-5108]
2. C1=Cc2ccccc2C(=C2CCN(CCCCc3nn[nH]n3)CC2)c2ccccc21
3. CCCNc1ccc2ncc(-c3ccncc3)n2n1
4. COc1cc(-c2cn(C)c(=O)c3cnccc23)cc(OC)c1CN(C)C
5. N[C@H](C(=O)O)[C@@H]1CC(Cl)=NO1 [ACIVICIN]
6. CC(=O)N1CCC(c2ccc(C(=O)NC(=N)N)cc2C(F)(F)F)CC1 [BI 9627]
7. Clc1ccccc1C(c1ccccc1)(c1ccccc1)n1ccnc1 [CLOTRIMAZOLE]

0.73
0.78
-0.3
0.89
0.69
0.69
0.62

Batch lookup, Growth Rate per entry.
1. COc1c(NC(=O)c2cc3cccc(Oc4ccnc(C(=O)N5CCN(C)CC5)c4)c3n2C)cc(C(C)(C)C)cc1NS(C)(=O)=O
2. Cl.N/C(=N\C(=O)c1nc(Cl)c(N)nc1N)NCc1ccccc1 [BENZAMIL HYDROCHLORIDE]
3. CNC(=O)c1ccc2c(c1)NC(=O)/C2=C(\Nc1ccc(CN2CCCCC2)cc1)c1ccccc1.Cl.O
4. Cn1cc(-c2ccc(N(C(=O)NCc3ccccc3)[C@H]3CC[C@H](Nc4ccc(C#N)cn4)CC3)cc2)ccc1=O
5. Cc1nn(C)c(COc2ccc(N3CCN(S(=O)(=O)N(C)C)CC3)cc2)c1-c1cccc2c(CCCOc3cccc4ccccc34)c(C(=O)O)n(CCN3CCOCC3)c12
6. Cc1c(CN2CCC3(CC2)CN(c2ncnc4sc(CC(F)(F)F)cc24)C3)ccc2c1cc(C#N)n2CC(N)=O

[0.57, 0.79, 0.72, -0.56, 0.84, -0.05]

Batch lookup, Growth Rate per entry.
1. CC(C)n1cc(-c2ccc(N3CCN(C)CC3)c(NC(=O)c3ccc(-c4ccncc4)o3)c2)cn1
2. CC(=O)c1ccc2c(c1)/C(=C(/NC1CCN(C)CC1)c1ccc3c(c1)OCO3)C(=O)N2

-0.31
-0.95

What value of Growth Rate has been recorded for this entry: Cc1cc(-c2nc(-c3ccc(OC(F)(F)F)cc3)no2)nn1Cc1ccnc(N2CCN(C3CC3)CC2)c1
-0.22
